Molecular target: RBL-1 Cell Cyclooxygenase (Rattus norvegicus)
Construct: the supernatant was saved as the source of enzymes; endogenous in cells
Sequence (Q63921 27-602): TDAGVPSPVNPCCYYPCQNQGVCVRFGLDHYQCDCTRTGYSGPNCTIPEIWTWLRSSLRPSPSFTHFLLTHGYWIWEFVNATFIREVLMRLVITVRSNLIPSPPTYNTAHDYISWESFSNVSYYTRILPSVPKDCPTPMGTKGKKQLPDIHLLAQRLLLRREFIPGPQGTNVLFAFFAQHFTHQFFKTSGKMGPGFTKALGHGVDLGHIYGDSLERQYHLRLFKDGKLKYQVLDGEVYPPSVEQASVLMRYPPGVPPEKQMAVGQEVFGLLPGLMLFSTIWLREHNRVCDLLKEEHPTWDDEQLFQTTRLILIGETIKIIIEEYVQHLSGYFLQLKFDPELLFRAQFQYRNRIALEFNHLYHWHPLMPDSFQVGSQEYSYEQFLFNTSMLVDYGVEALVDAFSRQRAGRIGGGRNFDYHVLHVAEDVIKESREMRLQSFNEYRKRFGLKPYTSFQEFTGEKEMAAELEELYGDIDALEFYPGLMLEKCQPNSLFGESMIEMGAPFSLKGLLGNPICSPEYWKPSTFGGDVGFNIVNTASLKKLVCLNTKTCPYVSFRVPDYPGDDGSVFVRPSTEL
Assay: Procedure II: cyclooxygenase inhibition in disrupted RBL-1 cells (supernatant as enzyme source)
Conditions: read-out: IC50 CO (Procedure II)
Listing of recorded IC50 by entry.
I only need the number, in nM, no unit after it.

COc1ccc(-n2nc(COC(=O)N(C)O)c(Br)c2-c2ccc(C)cc2)cc1: 1140
COc1ccc(-n2nc(COC(=O)N(O)C(C)C)c(Br)c2-c2ccc(Cl)cc2)cc1: 880

# input for lookup
So the reported IC50 for COc1ccc(-n2nc(COC(=O)NO)c(Cl)c2-c2ccc(C)cc2)cc1 , on RBL-1 Cell Cyclooxygenase (Rattus norvegicus), turned out to be 1090
